target: integrin CD11b/CD18 (K562 CD11b/CD18 cells) (Homo sapiens, UniProt P05107+P11215); test: K562 cell adhesion assay with immobilized ligands; settings: cell-based adhesion assay, K562 cells, 30 min at 37° C.
Below, each entry is listed alongside its reported EC50.
property_label: EC50

[[record]]
compound = "O=C(O)c1ccc(-c2cccc(/C=C3\\SC(=S)N(Cc4ccc(F)cc4)C3=O)c2)cc1 [Compound 20]"
target_or_test_system = "integrin CD11b/CD18 (K562 CD11b/CD18 cells) (Homo sapiens, UniProt P05107+P11215)"
property_label = "EC50"
reported = "1 to 10 µM"

[[record]]
compound = "O=C1/C(=C/c2ccc(-c3ccc(-c4nnn[nH]4)cc3)o2)SC(=S)N1Cc1ccccc1 [Compound 42]"
target_or_test_system = "integrin CD11b/CD18 (K562 CD11b/CD18 cells) (Homo sapiens, UniProt P05107+P11215)"
property_label = "EC50"
reported = "0.25 to 1 µM"

[[record]]
compound = "O=C(O)c1ccc(-c2ccc(/C=C3\\SC(=S)N(Cc4ccc(Cl)cc4)C3=O)o2)cc1 [Compound 35]"
target_or_test_system = "integrin CD11b/CD18 (K562 CD11b/CD18 cells) (Homo sapiens, UniProt P05107+P11215)"
property_label = "EC50"
reported = "0.1 to 0.25 µM"

[[record]]
compound = "O=C(O)c1ccc(-c2cccc(/C=C3\\SC(=S)N(Cc4ccccc4)C3=O)c2)cc1 [Compound 17]"
target_or_test_system = "integrin CD11b/CD18 (K562 CD11b/CD18 cells) (Homo sapiens, UniProt P05107+P11215)"
property_label = "EC50"
reported = "1 to 10 µM"

[[record]]
compound = "O=C(O)c1ccc(-c2ccc(/C=C3\\SC(=S)N(Cc4cccc(Cl)c4)C3=O)o2)cc1 [Compound 30]"
target_or_test_system = "integrin CD11b/CD18 (K562 CD11b/CD18 cells) (Homo sapiens, UniProt P05107+P11215)"
property_label = "EC50"
reported = "0.1 to 0.25 µM"

[[record]]
compound = "O=C(O)c1ccc(-c2ccc(/C=C3\\SC(=S)N(Cc4ccccc4O)C3=O)o2)cc1 [Compound 41]"
target_or_test_system = "integrin CD11b/CD18 (K562 CD11b/CD18 cells) (Homo sapiens, UniProt P05107+P11215)"
property_label = "EC50"
reported = "1 to 10 µM"

[[record]]
compound = "COc1ccccc1CN1C(=O)/C(=C/c2ccc(-c3ccc(C(=O)O)cc3)o2)SC1=S [Compound 27]"
target_or_test_system = "integrin CD11b/CD18 (K562 CD11b/CD18 cells) (Homo sapiens, UniProt P05107+P11215)"
property_label = "EC50"
reported = "0.25 to 1 µM"

[[record]]
compound = "O=C(O)c1ccc(-c2cccc(/C=C3\\SC(=S)N(Cc4ccccc4)C3=O)n2)cc1 [Compound 18]"
target_or_test_system = "integrin CD11b/CD18 (K562 CD11b/CD18 cells) (Homo sapiens, UniProt P05107+P11215)"
property_label = "EC50"
reported = "1 to 10 µM"

[[record]]
compound = "O=C(O)c1ccc(-c2ccc(/C=C3\\SC(=S)N(Cc4ccccc4)C3=O)o2)nc1 [Compound 14]"
target_or_test_system = "integrin CD11b/CD18 (K562 CD11b/CD18 cells) (Homo sapiens, UniProt P05107+P11215)"
property_label = "EC50"
reported = "0.25 to 1 µM"

[[record]]
compound = "COC(=O)c1ccc(-c2ccc(/C=C3\\SC(=S)N(Cc4ccc(F)cc4)C3=O)o2)cn1 [Compound 16]"
target_or_test_system = "integrin CD11b/CD18 (K562 CD11b/CD18 cells) (Homo sapiens, UniProt P05107+P11215)"
property_label = "EC50"
reported = "0.1 to 0.25 µM"

[[record]]
compound = "Cc1cccc(CN2C(=O)/C(=C/c3ccc(-c4ccc(C(=O)O)cc4)o3)SC2=S)c1 [Compound 28]"
target_or_test_system = "integrin CD11b/CD18 (K562 CD11b/CD18 cells) (Homo sapiens, UniProt P05107+P11215)"
property_label = "EC50"
reported = "0.25 to 1 µM"

[[record]]
compound = "CCOC(=O)c1ccc(-c2ccc(CN3CC(=S)N(Cc4ccccc4)C3=O)o2)cc1 [Compound 7]"
target_or_test_system = "integrin CD11b/CD18 (K562 CD11b/CD18 cells) (Homo sapiens, UniProt P05107+P11215)"
property_label = "EC50"
reported = "> 10 µM"

[[record]]
compound = "O=C(O)c1ccc(-c2ccc(/C=C3\\NC(=S)N(Cc4ccccc4)C3=O)o2)cc1 [Compound 4]"
target_or_test_system = "integrin CD11b/CD18 (K562 CD11b/CD18 cells) (Homo sapiens, UniProt P05107+P11215)"
property_label = "EC50"
reported = "1 to 10 µM"

[[record]]
compound = "CN1C(=S)N(Cc2ccccc2)C(=O)/C1=C/c1ccc(-c2ccc(C(=O)O)cc2)o1 [Compound 5]"
target_or_test_system = "integrin CD11b/CD18 (K562 CD11b/CD18 cells) (Homo sapiens, UniProt P05107+P11215)"
property_label = "EC50"
reported = "> 10 µM"

[[record]]
compound = "COc1cccc(CN2C(=O)/C(=C/c3ccc(-c4ccc(C(=O)O)cc4)o3)SC2=S)c1 [Compound 29]"
target_or_test_system = "integrin CD11b/CD18 (K562 CD11b/CD18 cells) (Homo sapiens, UniProt P05107+P11215)"
property_label = "EC50"
reported = "0.25 to 1 µM"

[[record]]
compound = "Cc1ccc(CN2C(=O)/C(=C/c3ccc(-c4ccc(C(=O)O)cc4)o3)SC2=S)c(C)c1 [Compound 37]"
target_or_test_system = "integrin CD11b/CD18 (K562 CD11b/CD18 cells) (Homo sapiens, UniProt P05107+P11215)"
property_label = "EC50"
reported = "1 to 10 µM"


###

test: Pharmacokinetic properties after PO/IV cassette dosing; format: in vivo, Balb/C mice; conditions: Balb/C, mouse, plasma; IV 1 mg/kg and/or PO 10 mg/kg cassette dose; read-out: Vdss
property_label: Vd (L/kg)

[[record]]
molecule = "O=C1/C(=C/c2ccc(-c3ccc(-c4nnn[nH]4)cc3)o2)SC(=S)N1Cc1ccccc1 [Compound 42]"
reported = 1.15

[[record]]
molecule = "O=C(O)c1ccc(-c2ccc(/C=C3\\OC(=S)N(Cc4ccccc4)C3=O)o2)cc1 [Compound 1]"
reported = 1.5

[[record]]
molecule = "O=C(O)c1ccc(-c2ccc(/C=C3\\OC(=S)N(Cc4ccc(F)cc4)C3=O)o2)cc1 [Compound 8]"
reported = 1.37


###

experiment: Pharmacokinetic properties after PO/IV cassette dosing; format: in vivo, Balb/C mice; conditions: mouse, plasma; head prints Rat, method Balb/C mice; PO 10 mg/kg, IV 1 mg/kg cassette dose; read-out: Rat F %
property_label: bioavailability (%)

[[record]]
item_smiles = "O=C1/C(=C/c2ccc(-c3ccc(-c4nnn[nH]4)cc3)o2)SC(=S)N1Cc1ccccc1"
reported = 4.1

[[record]]
item_smiles = "O=C(O)c1ccc(-c2ccc(/C=C3\\OC(=S)N(Cc4ccc(F)cc4)C3=O)o2)cc1"
reported = 8.82

[[record]]
item_smiles = "O=C(O)c1ccc(-c2ccc(/C=C3\\OC(=S)N(Cc4ccccc4)C3=O)o2)cc1"
reported = 18.6


###

target: integrin CD11b/CD18 (K562 CD11b/CD18 cells) (Homo sapiens, UniProt P05107+P11215); assay: K562 cell adhesion assay with immobilized ligands; details: cell-based adhesion assay, K562 cells, 30 min at 37° C.
Below, each entry is listed alongside its reported EC50.
property_label: EC50

[[record]]
item_smiles = "CC(C)c1ccc(CN2C(=O)/C(=C/c3ccc(-c4ccc(C(=O)O)cc4)o3)SC2=S)cc1"
target_or_test_system = "integrin CD11b/CD18 (K562 CD11b/CD18 cells) (Homo sapiens, UniProt P05107+P11215)"
property_label = "EC50"
reported = "250 to 1000 nM"

[[record]]
item_smiles = "CCOC(=O)c1ccc(-c2ccc(CN3CC(=O)N(Cc4ccccc4)C3=O)o2)cc1"
target_or_test_system = "integrin CD11b/CD18 (K562 CD11b/CD18 cells) (Homo sapiens, UniProt P05107+P11215)"
property_label = "EC50"
reported = "> 10000 nM"

[[record]]
item_smiles = "O=C(O)c1ccc(-c2ccc(/C=C3\\SC(=S)N(Cc4ccccc4)C3=O)s2)cc1"
target_or_test_system = "integrin CD11b/CD18 (K562 CD11b/CD18 cells) (Homo sapiens, UniProt P05107+P11215)"
property_label = "EC50"
reported = "100 to 250 nM"

[[record]]
item_smiles = "O=C(O)c1ccc(-c2ccc(/C=C3\\SC(=S)N(Cc4ccccc4Cl)C3=O)o2)cc1"
target_or_test_system = "integrin CD11b/CD18 (K562 CD11b/CD18 cells) (Homo sapiens, UniProt P05107+P11215)"
property_label = "EC50"
reported = "250 to 1000 nM"

[[record]]
item_smiles = "O=C(O)c1ccc(-c2ccc(/C=C3\\SC(=S)N(Cc4ccc(F)cc4)C3=O)o2)cn1"
target_or_test_system = "integrin CD11b/CD18 (K562 CD11b/CD18 cells) (Homo sapiens, UniProt P05107+P11215)"
property_label = "EC50"
reported = "100 to 250 nM"

[[record]]
item_smiles = "O=C(O)c1ccc(-c2cccc(/C=C3\\SC(=S)N(Cc4ccc(F)cc4)C3=O)n2)cc1"
target_or_test_system = "integrin CD11b/CD18 (K562 CD11b/CD18 cells) (Homo sapiens, UniProt P05107+P11215)"
property_label = "EC50"
reported = "250 to 1000 nM"

[[record]]
item_smiles = "O=C(O)c1ccc(-c2nccc(/C=C3\\SC(=S)N(Cc4ccccc4)C3=O)n2)cc1"
target_or_test_system = "integrin CD11b/CD18 (K562 CD11b/CD18 cells) (Homo sapiens, UniProt P05107+P11215)"
property_label = "EC50"
reported = "1000 to 10000 nM"

[[record]]
item_smiles = "CN1C(=O)N(Cc2ccccc2)C(=O)/C1=C/c1ccc(-c2ccc(C(=O)O)cc2)o1"
target_or_test_system = "integrin CD11b/CD18 (K562 CD11b/CD18 cells) (Homo sapiens, UniProt P05107+P11215)"
property_label = "EC50"
reported = "> 10000 nM"

